Biological target: Gal(b1-4)GlcNAc
Assay: glycan array binding signal (z-score within array); higher = stronger binding
Details: glycan notation: IUPAC condensed, linker removed
This excerpt belongs to a sample that is enriched for the strongest signals.
property_measured: glycan array binding signal (z-score)
Lab note: record just the number, no unit beside it.

INSERT INTO measurements (binder, experimental_result) VALUES
  ('CTMLA2 (Anopheles gambiae), Q7Q7F8 (protein) MNLMITILIAVITVVRGDLSVPKTVDDILQQNPCLCPCKPFEEKEYFIPISRTSDWFGAVAYCHSVGMELAEVLNEDEARAMGEVIAEEESDSDDEFYWIGANDLGVQGTYRWALAGRPVLYSQWAAGEPNHARGENGQQPAERCVAVAMDKYEWNDFQCTQQKPFICQQFRKH', -0.338);

Endpoint output: glycan array binding signal (z-score) of GNA (Galanthus nivalis), P30617 (protein) MAKASLLILAAIFLGVITPSCLSDNILYSGETLSTGEFLNYGSFVFIMQEDCNLVLYDVDKPIWATNTGGLSRSCFLSMQTDGNLVVYNPSNKPIWASNTGGQNGNYVCILQKDRNVVIYGTDRWATGTHTGLVGIPASPPSEKYPTAGKIKLVTAK . Value?
-0.172

Endpoint output: glycan array binding signal (z-score) of MFG-E8 (Homo sapiens), Q08431 (protein) MPRPRLLAALCGALLCAPSLLVALDICSKNPCHNGGLCEEISQEVRGDVFPSYTCTCLKGYAGNHCETKCVEPLGLENGNIANSQIAASSVRVTFLGLQHWVPELARLNRAGMVNAWTPSSNDDNPWIQVNLLRRMWVTGVVTQGASRLASHEYLKAFKVAYSLNGHEFDFIHDVNKKHKEFVGNWNKNAVHVNLFETPVEAQYVRLYPTSCHTACTLRFELLGCELNGCANPLGLKNNSIPDKQITASSSYKTWGLHLFSWNPSYARLDKQGNFNAWVAGSYGNDQWLQVDLGSSKEVTGIITQGARNFGSVQFVASYKVAYSNDSANWTEYQDPRTGSSKIFPGNWDNHSHKKNLFETPILARYVRILPVAWHNRIALRLELLGC . Value?
-0.753

Endpoint output: glycan array binding signal (z-score) of DrGal3 (Danio rerio) (protein) MDLSDALDAPPQQNNQQAGGPVWPGQPANPVWPGQPANPTWPGQPNQPAWPGQPNQQWPGQPGQPTAPGWPGPAPQTGPYGAPGQAPQVLTVPLDFPLQNGAYNKMLITINGEVKPNAKQFTVNLRRGNDIAFHINPRFSEGGKPVIVRNSMIGNNWGREERELPSFPFVPGKPFEMKILITDTEYKVAVNKSHLLEFKHRVFELNQITGLSIYNDVTLSTVNVETLQ . Value?
-0.237

Endpoint output: glycan array binding signal (z-score) of Langerin K313I (Homo sapiens), Q9UJ71 (protein) STLNAQIPELKSDLEKASALNTKIRALQGSLENMSKLLKRQNDILQVVSQGWKYFKGNFYYFSLIPKTWYSAEQFCVSRNSHLTSVTSESEQEFLYKTAGGLIYWIGLTKAGMEGDWSWVDDTPFNKVQSARFWIPGEPNNAGNNEHCGNIKAPSLQAWNDAPCDITFLFICKRPYVPSEP . Value?
-0.346

Endpoint output: glycan array binding signal (z-score) of Drgal1 (Danio rerio) (protein) MAGVLIQNMSFKVGQTLTITGVPKPDSTNFAINIGHSPEDIALHMNPRFDAHGDQCTIVCNSFQSGSWCEEHRDDNFPFIQDKEFQIKITFTNEEFLVTLPDGSEIHFPNRQGSEKYKYMYFEGEVRIQGVEIK . Value?
-0.448
